Task for the reader: assign each of the following compounds its reported IC50.
Target: recombinant full length HPK-1 enzyme (Homo sapiens (Human))
Sequence (Q92918 whole entry, species assumed): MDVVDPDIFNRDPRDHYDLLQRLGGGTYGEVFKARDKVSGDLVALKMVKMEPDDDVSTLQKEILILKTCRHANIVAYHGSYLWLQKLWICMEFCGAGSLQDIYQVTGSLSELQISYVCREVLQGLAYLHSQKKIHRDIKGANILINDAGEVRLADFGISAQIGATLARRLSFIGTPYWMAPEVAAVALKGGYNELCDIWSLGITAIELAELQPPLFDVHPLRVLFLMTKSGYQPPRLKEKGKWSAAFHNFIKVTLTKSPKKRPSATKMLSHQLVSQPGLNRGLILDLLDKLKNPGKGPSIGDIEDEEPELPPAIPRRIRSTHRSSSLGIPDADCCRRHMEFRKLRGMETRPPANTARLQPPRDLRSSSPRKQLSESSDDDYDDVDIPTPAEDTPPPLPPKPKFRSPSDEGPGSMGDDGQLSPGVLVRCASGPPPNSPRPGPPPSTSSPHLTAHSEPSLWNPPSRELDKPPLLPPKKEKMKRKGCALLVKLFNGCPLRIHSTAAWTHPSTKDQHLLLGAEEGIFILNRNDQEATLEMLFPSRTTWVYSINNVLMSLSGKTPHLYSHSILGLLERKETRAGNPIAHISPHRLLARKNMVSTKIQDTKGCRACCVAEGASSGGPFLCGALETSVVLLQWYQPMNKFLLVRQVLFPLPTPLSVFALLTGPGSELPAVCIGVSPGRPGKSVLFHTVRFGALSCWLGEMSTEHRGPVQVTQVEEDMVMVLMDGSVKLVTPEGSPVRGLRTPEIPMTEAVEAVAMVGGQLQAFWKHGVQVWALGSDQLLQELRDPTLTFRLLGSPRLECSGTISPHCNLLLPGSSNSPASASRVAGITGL
Assay: HPK-1 biochemical enzyme assay (ADP-Glo kinase inhibition)
Conditions: recombinant full length HPK-1 6.8 nM, 10 μM ATP, 12.5 μM MBP, 30 mins at 25° C.

Cc1c(Nc2cc[nH]c(=O)c2C(=O)Nc2ccc(S(N)(=O)=O)cc2)cnc2c1NCCO2    0.01 to 0.1 µM
Cc1c(Nc2cc[nH]c(=O)c2C(=O)Nc2ccc(N3CCN(C)CC3)c(Cl)c2)cnc2c1NCCO2    ≤ 0.01 µM
Cc1c(Nc2cc[nH]c(=O)c2C(=O)Nc2ccc(C3CCCN(C)C3)cc2)cnc2c1NCCO2 (centres unmarked)    ≤ 0.01 µM
CCC(=O)N1CCN(c2ccc(NC(=O)c3c(Nc4cnc5c(c4C)NCCO5)cc[nH]c3=O)cc2)C[C@@H]1C    ≤ 0.01 µM
Cc1c(Nc2cc[nH]c(=O)c2C(=O)Nc2ccc(N3CC4CCC(C3)N4C)cc2)cnc2c1NCCO2    ≤ 0.01 µM

For every item in the list below, what is its measured IC50?
1. Cc1c(Nc2cc[nH]c(=O)c2C(=O)Nc2ccc(N3CCC(C(C)O)CC3)cc2)cnc2c1NCCO2 (centres unmarked)
2. COc1ccc(Oc2ccc(NC(=O)c3c(Nc4cnc5c(c4C)NCCO5)cc[nH]c3=O)cc2)cc1
3. Cc1c(Nc2cc[nH]c(=O)c2C(=O)Nc2ccc(N3CCN(C(C)(C)C)CC3)cc2)cnc2c1NCCO2
4. CC(=O)N1CCN(c2ccc(NC(=O)c3c(Nc4cnc5c(c4C)NCCO5)cc[nH]c3=O)cc2)CC1
5. Cc1c(Nc2cc[nH]c(=O)c2C(=O)Nc2ccc(N3CCN(C(=O)C(C)C)CC3)cc2)cnc2c1NCCO2

-- reply
1. ≤ 0.01 µM
2. 0.1 to 1 µM
3. ≤ 0.01 µM
4. 0.01 to 0.1 µM
5. ≤ 0.01 µM

I'm hoping you can list IC50 for every compound here, please.
1. Cc1c(Nc2cc[nH]c(=O)c2C(=O)Nc2ccc(N3CCN(C)CC3=O)cc2)cnc2c1NCCO2
2. Cc1c(Nc2cc[nH]c(=O)c2C(=O)Nc2ccc(N3CCN(C)CC3)c(C(F)(F)F)c2)cnc2c1NCC(C)O2 (centres unmarked)

-- reply
["0.01 to 0.1 µM", "0.01 to 0.1 µM"]

* * *

Target: recombinant full length HPK-1 enzyme (Homo sapiens (Human))
Test: HPK-1 biochemical enzyme assay (ADP-Glo kinase inhibition)
Conditions: recombinant full length HPK-1 6.8 nM, 10 μM ATP, 12.5 μM MBP, 30 mins at 25° C.
Method: HPK-1 biochemical enzyme assay Compound inhibitory potency was measured in an HPK-1 kinase inhibition assay. […] Reactions were quenched and reaction mixtures were then analyzed by an ADP-Glo kit which measures the formed ADP. […] The compounds were dissolved in DMSO and evaluated at 10 concentrations to determine an IC50 value. […]
pIC50: −log10 of the molar value.
Would you mind telling me the reported pIC50 of each entry?

Take a look at these entries with their results.
Cc1c(Nc2cc[nH]c(=O)c2C(=O)Nc2ccc(N3CCN(C(=O)C(C)C)[C@@H](C)C3)cc2)cnc2c1NCCO2    ≥ 8.00
Cc1c(Nc2cc[nH]c(=O)c2C(=O)Nc2ccc(CN3CCN(C)CC3)c(C(F)(F)F)c2)cnc2c1NCCO2    7.00 to 8.00

Give me pIC50 for each of these molecules, listed below.
1. Cc1c(Nc2cc[nH]c(=O)c2C(=O)Nc2ccc(N3CCN(C)C[C@H]3C)cc2)cnc2c1NCCO2
2. COc1ncc(C(C)(C)O)c2cc(NC(=O)c3c(Nc4cnc5c(c4C)NCCO5)cc[nH]c3=O)ccc12
3. COC(C)(C)CN1CCN(c2ccc(NC(=O)c3c(Nc4cnc5c(c4C)NCCO5)cc[nH]c3=O)cc2)CC1
4. Cc1c(Nc2cc[nH]c(=O)c2C(=O)Nc2ccc(N3CCN(C)CC3CO)cc2)cnc2c1NCCO2 (stereo not drawn)
5. Cc1c(Nc2cc[nH]c(=O)c2C(=O)Nc2ccc(N3CCN(C4CCCC4)CC3)cc2)cnc2c1NCCO2
6. Cc1c(Nc2cc[nH]c(=O)c2C(=O)Nc2ccc3c(c2)NC(=O)CC3)cnc2c1NCCO2
7. COCCN1CCC(c2ccc(NC(=O)c3c(Nc4cnc5c(c4C)NCCO5)cc[nH]c3=O)cc2F)CC1
8. Cc1c(Nc2cc[nH]c(=O)c2C(=O)Nc2ccc(N3CCN(C(C)C)CC3)cc2)cnc2c1NCCO2

-- reply
1: ≥ 8.00; 2: 6.00 to 7.00; 3: ≥ 8.00; 4: 7.00 to 8.00; 5: ≥ 8.00; 6: 7.00 to 8.00; 7: ≥ 8.00; 8: ≥ 8.00

Would you be so kind as to report pIC50 for each listed record?
1. Cc1c(Nc2cc[nH]c(=O)c2C(=O)Nc2ccc(N3CCN(CC(=O)N(C)C)CC3)cc2)cnc2c1NCCO2
2. Cc1c(Nc2cc[nH]c(=O)c2C(=O)Nc2ccc(N3CCC(O)C3)cc2)cnc2c1NCCO2 (stereo not drawn)
3. COCCN1CCN(c2ccc(NC(=O)c3c(Nc4cnc5c(c4C)NCCO5)nc[nH]c3=O)cc2)CC1
4. COC1(CN(C)C)CCN(c2ccc(NC(=O)c3c(Nc4cnc5c(c4C)NCCO5)cc[nH]c3=O)cc2)CC1

-- reply
1: ≥ 8.00; 2: 7.00 to 8.00; 3: 7.00 to 8.00; 4: ≥ 8.00

Form field pIC50 for item Cc1c(Nc2cc[nH]c(=O)c2C(=O)Nc2ccc(N3CCN(c4ncn(C)n4)CC3)cc2)cnc2c1NCCO2 on recombinant full length HPK-1 enzyme (Homo sapiens (Human)): ≥ 8.00
